Biological target: 3-oxo-5-alpha-steroid 4-dehydrogenase 2 (Homo sapiens)
Test: Inhibition of Steroid 5-alpha-reductase type 2 from human benign prostatic hyperplasia (BPH) tissue
pIC50: −log10 of the molar value.
Label no (0) if pIC50 falls below 6; label yes (1) in every other case.

Would you please look over these solved cases?
In [3]: df
Out[3]:
                                smiles_code  label_value
0  O=C(O)c1ccc(C=C2CCN(C(=O)C34CC5CC(CC(C5)C3)C4)CC2)cc1      yes (1)
1  COc1cc(C(=O)O)ccc1C=C1CCN(C(=O)C(c2ccccc2)c2ccccc2)CC1       no (0)
2  O=C(O)Cc1ccc(C=C2CCN(C(=O)C(C3CCCCC3)C3CCCCC3)CC2)c(F)c1      yes (1)

## Input Please check the record `O=C(O)c1ccc(OC2CCN(C(=O)C34CC5CC(CC(C5)C3)C4)CC2)cc1` and state if its pIC50 is at or above 6.
## Output yes (1)

---

inhibition values, listed per item
Target: UniProtKB P24008
Experiment: Inhibition of Steroid 5-alpha-reductase type I of rat ventral prostate (RVP)
Format: tissue-based
Parameters: concentration or dose not given beside the values
Details: Prostate gland, concentration not given here
Field: numeric (%). Do not append units.

Example results:
>>> df
                                smiles_code         tested_on  experimental_result
0  COc1cc(C(=O)O)ccc1C=C1CCN(C(=O)C23CC4CC(CC(C4)C2)C3)CC1  UniProtKB P24008                   52
1  O=C(O)c1cccc(C=C2CCN(C(=O)C(c3ccccc3)c3ccccc3)CC2)c1  UniProtKB P24008                   49
2  O=C(O)c1ccc(OC2CCN(C(=O)N(c3ccccc3)c3ccccc3)CC2)cc1  UniProtKB P24008                   53
3  O=C(O)c1ccc(OC2CCN(C(=O)C(c3ccccc3)c3ccccc3)CC2)cc1  UniProtKB P24008                   62

Now for a further compound.
## Input Which inhibition value belongs to `O=C(O)c1ccc(C=C2CCN(C(=O)C(C3CCCCC3)C3CCCCC3)CC2)cc1` ?
## Output 51

---

Biological target: 3-oxo-5-alpha-steroid 4-dehydrogenase 1 (Rattus norvegicus, UniProt P24008)
Sequence (P24008 whole entry): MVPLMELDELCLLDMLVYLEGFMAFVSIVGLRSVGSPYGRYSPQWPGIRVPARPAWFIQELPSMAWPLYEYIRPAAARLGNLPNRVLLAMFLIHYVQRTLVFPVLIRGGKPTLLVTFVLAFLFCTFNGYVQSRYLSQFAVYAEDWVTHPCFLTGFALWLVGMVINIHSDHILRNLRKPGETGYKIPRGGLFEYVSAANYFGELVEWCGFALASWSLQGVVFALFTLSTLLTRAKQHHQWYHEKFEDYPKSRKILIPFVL
Test: Inhibition of Steroid 5-alpha-reductase type I from rat ventral prostate (RVP)
Assay type: tissue-based, Prostate gland
experimental_readout: pIC50
By convention, pIC50 is the negative base-10 log of a molar concentration.

Use these answered entries as a reference point.
                                   compound  experimental_readout  experimental_result
0  O=C(O)Cc1ccc(C=C2CCN(C(=O)C(c3ccccc3)c3ccccc3)CC2)cc1                 pIC50                 5.35
1  O=C(O)c1ccc(C=C2CCN(C(=O)N(c3ccccc3)c3ccccc3)CC2)cc1                 pIC50                 6.27
2  O=C(O)c1ccc(C=C2CCN(C(=O)C34CC5CC(CC(C5)C3)C4)CC2)c(F)c1                 pIC50                 5.57
3  CC(C)(C)NC(=O)[C@H]1CC[C@H]2[C@@H]3CC[C@H]4NC(=O)C=C[C@]4(C)[C@H]3CC[C@]12C [FINASTERIDE]                 pIC50                 8.00
4  O=C(O)c1ccc(C=C2CCN(C(=O)CC(c3ccccc3)c3ccccc3)CC2)cc1                 pIC50                 5.80
5  O=C(O)c1ccc(C=C2CCN(C(=O)C34CC5CC(CC(C5)C3)C4)CC2)cc1                 pIC50                 5.25
6  O=C(O)Cc1ccc(C=C2CCN(C(=O)C(C3CCCCC3)C3CCCCC3)CC2)c(F)c1                 pIC50                 5.49
7  O=C(O)c1ccc(C=C2CCN(C(=O)C(c3ccccc3)c3ccccc3)CC2)cc1                 pIC50                 5.47

## Input Would you mind telling me what pIC50 value was observed for `O=C(O)c1ccc(C=C2CCN(C(=O)C(c3ccccc3)c3ccccc3)CC2)c(F)c1` ?
## Output 5.96

## Input Reported pIC50 for `COc1cc(C(=O)O)ccc1C=C1CCN(C(=O)C(c2ccccc2)c2ccccc2)CC1` : what is it?
## Output 5.72

---

Target: 3-oxo-5-alpha-steroid 4-dehydrogenase 1 (Rattus norvegicus) (UniProt P24008)
Test: Inhibition of Steroid 5-alpha-reductase type I of rat ventral prostate (RVP)
Assay type: tissue-based
Set-up: concentration or dose not given beside the values
Details: Prostate gland, concentration not given here
Please use rule met whenever inhibition is not below 40%, and rule not met whenever it is.

The following molecules have reported results that may help.
                                smiles_code   label_value
0  O=C(O)Cc1ccc(C=C2CCN(C(=O)C(C3CCCCC3)C3CCCCC3)CC2)cc1      rule met
1  COc1cc(C(=O)O)ccc1C=C1CCN(C(=O)C(C2CCCCC2)C2CCCCC2)CC1      rule met
2  O=C(O)c1cccc(C=C2CCN(C(=O)C(C3CCCCC3)C3CCCCC3)CC2)c1  rule not met

## Input Form field: inhibition at least 40%? Entry: `O=C(O)c1ccc(OC2CCN(C(=O)C34CC5CC(CC(C5)C3)C4)CC2)cc1`
## Output rule not met

## Input Exam item: decide whether the reported inhibition for `CC(C)(C)OC(=O)N1CCC(Oc2ccc(C(=O)O)cc2)CC1` is at least 40%.
## Output rule not met

---

Target: 3-oxo-5-alpha-steroid 4-dehydrogenase 2 (Homo sapiens, UniProt P31213)
Sequence (P31213 whole entry): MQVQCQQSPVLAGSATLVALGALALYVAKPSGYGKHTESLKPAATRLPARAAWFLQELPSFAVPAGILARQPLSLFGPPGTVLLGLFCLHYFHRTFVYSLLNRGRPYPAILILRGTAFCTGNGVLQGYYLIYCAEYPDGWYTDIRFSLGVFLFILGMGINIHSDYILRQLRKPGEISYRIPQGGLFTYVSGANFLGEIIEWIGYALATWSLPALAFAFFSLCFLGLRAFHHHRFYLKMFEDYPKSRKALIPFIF
Assay: Inhibition of Steroid 5-alpha-reductase type 2 from human benign prostatic hyperplasia (BPH) tissue
pIC50 values by entry
pIC50 field: float, defined as -log10 of concentration (mol/L).

                                smiles_code  experimental_result
0  O=C(O)c1ccc(C=C2CCN(C(=O)C(c3ccccc3)c3ccccc3)CC2)c(F)c1                 6.39
1  O=C(O)Cc1ccc(C=C2CCN(C(=O)C(C3CCCCC3)C3CCCCC3)CC2)cc1                 8.22
2  COc1cc(C(=O)O)ccc1C=C1CCN(C(=O)C(C2CCCCC2)C2CCCCC2)CC1                 6.89
3  O=C(O)c1ccc(C=C2CCN(C(=O)C(C3CCCCC3)C3CCCCC3)CC2)c(F)c1                 7.96

Could you now look at the following compound, please?
## Input Given the entry `O=C(O)c1ccc(C=C2CCN(C(=O)C34CC5CC(CC(C5)C3)C4)CC2)c(F)c1` , report its measured pIC50.
## Output 6.68

---

Parameter pIC50: see the listing below.
Target: 3-oxo-5-alpha-steroid 4-dehydrogenase 2 (Homo sapiens, UniProt P31213)
Assay: Inhibition of Steroid 5-alpha-reductase type 2 from human benign prostatic hyperplasia (BPH) tissue
Please keep in mind that pIC50 is minus log10 of the molar concentration; only the number is needed.

>>> df
                                   compound  experimental_readout  experimental_result
0  O=C(O)c1ccc(C=C2CCN(C(=O)C(c3ccccc3)c3ccccc3)CC2)cc1                 pIC50                 6.28
1  O=C(O)c1ccc(C=C2CCN(C(=O)C(C3CCCCC3)C3CCCCC3)CC2)cc1                 pIC50                 7.22
2  O=C(O)c1ccc(C=C2CCN(C(=O)N(c3ccccc3)c3ccccc3)CC2)cc1                 pIC50                 6.08

## Input Fill in the blank: the reported pIC50 of CC(C)(C)NC(=O)[C@H]1CC[C@H]2[C@@H]3CC[C@H]4NC(=O)C=C[C@]4(C)[C@H]3CC[C@]12C [FINASTERIDE] is ____.
## Output 8.30

## Input // returns reported pIC50 for input `COc1cc(C(=O)O)ccc1C=C1CCN(C(=O)C23CC4CC(CC(C4)C2)C3)CC1`
## Output 5.92
